test system: KB; assay: In vitro cytotoxicity against KB cell line (human epidermoid carcinoma of the nasopharynx) using MTT assay; format: functional, cell-based
Kindly state IC50 for each of the entries shown.
Supply the numeric figure in µg/mL, leaving out any unit text.

Which IC50 value is on record for "CC[C@@]1(O)C(=O)OCc2c1cc1n(c2=O)Cc2cc3cc(OCCC[n+]4cccc(C(=O)O)c4)ccc3nc2-1" ?
0.32

Which IC50 value is on record for "CC[C@@]1(O)C(=O)OCc2c1cc1n(c2=O)Cc2cc3cc(OCC[n+]4cccc(CO)c4)ccc3nc2-1" ?
3.28

Which IC50 value is on record for "CC[C@@]1(O)C(=O)OCc2c1cc1n(c2=O)Cc2cc3cc(OCCC[n+]4ccccc4)ccc3nc2-1" ?
0.03

Which IC50 value is on record for "CC[C@@]1(O)C(=O)OCc2c1cc1n(c2=O)Cc2cc3cc(OCCC[n+]4cccc(F)c4)ccc3nc2-1" ?
3.4

Which IC50 value is on record for "CC[C@@]1(O)C(=O)OCc2c1cc1n(c2=O)Cc2cc3cc(OCC[n+]4cccc(C=O)c4)ccc3nc2-1" ?
0.34

Which IC50 value is on record for "CC[C@@]1(O)C(=O)OCc2c1cc1n(c2=O)Cc2cc3cc(OCC[n+]4cccc(F)c4)ccc3nc2-1" ?
0.33

Which IC50 value is on record for "CC[C@@]1(O)C(=O)OCc2c1cc1n(c2=O)Cc2cc3cc(OCC[n+]4cccc(C)c4)ccc3nc2-1" ?
0.63

Which IC50 value is on record for "CC[C@@]1(O)C(=O)OCc2c1cc1n(c2=O)Cc2cc3cc(OCCC[n+]4cccc(C=O)c4)ccc3nc2-1" ?
0.27

Which IC50 value is on record for "CC[C@@]1(O)C(=O)OCc2c1cc1n(c2=O)Cc2cc3cc(OCC[n+]4cccc(O)c4)ccc3nc2-1" ?
0.32
